Target: ~100 representative kinases (Homo sapiens, UniProt O14965)
Construct: Recombinant protein kinase domains with a concentration of 2 μM
Sequence (O14965 whole entry, the tested form may be a part): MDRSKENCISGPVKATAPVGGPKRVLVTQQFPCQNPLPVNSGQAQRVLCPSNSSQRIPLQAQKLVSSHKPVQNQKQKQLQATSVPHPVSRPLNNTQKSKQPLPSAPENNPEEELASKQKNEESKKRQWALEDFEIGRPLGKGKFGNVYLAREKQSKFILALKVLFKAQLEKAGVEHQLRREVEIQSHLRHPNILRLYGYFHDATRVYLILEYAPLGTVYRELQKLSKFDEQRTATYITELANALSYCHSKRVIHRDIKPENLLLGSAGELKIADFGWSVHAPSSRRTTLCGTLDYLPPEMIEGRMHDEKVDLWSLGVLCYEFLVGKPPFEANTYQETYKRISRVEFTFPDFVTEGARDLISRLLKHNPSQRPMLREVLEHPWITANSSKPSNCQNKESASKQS
Experiment: DSF 100 kinase selectivity screen;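 further: compound tested at 20 µM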
Assay type: binding
Details: Protein STK6; DSF; average of three replicates
property-measured: dTm (K)

Recorded dTm, per entry:
CC(C)(C)c1cccc(NC(=O)C2(C(=O)Nc3cccc(-c4c[nH]c5ncnc(N6CCOCC6)c45)c3)CC2)c1 = 6.69
Cc1ccc(C(=O)Nc2ccc(CN3CCN(C)CC3)c(C(F)(F)F)c2)cc1C#Cc1cnc2[nH]ncc2c1 [GZD-824, reference compound] = 3.67

a: COc1cc(C(=O)N2CCOCC2)c(F)cc1Nc1nc(N(C)C)c2c(Cl)c[nH]c2n1
b: O=C(Nc1cccc(-c2c[nH]c3ncnc(N4CCOCC4)c23)c1)C1(C(=O)Nc2ccc(F)c(Cl)c2)CC1
Smaller dTm value, a vs b ? Write down the label attached to your selection.
a
(a: 3.22 K, b: 8.24 K)

----------
Molecular target: ~100 representative kinases (Homo sapiens)
Construct: Recombinant protein kinase domains with a concentration of 2 μM
Assay: DSF 100 kinase selectivity screen;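 further: compound tested at 20 µM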
Type: binding
Conditions: Protein RPS6KA1; DSF; average of three replicates
property-measured: dTm (K)

O=C(Nc1cccc(-c2c[nH]c3ncnc(N4CCOCC4)c23)c1)C1(C(=O)Nc2cc(Br)c(F)cc2F)CC1 [Compound 25] = -1.87
Cn1cc(-c2c[nH]c3ncnc(N4CCOCC4)c23)cc1C#N [PFE-360] = 1.09
Cc1cc(NC(=O)C2(C(=O)Nc3ccc(F)cc3)CC2)cc(-c2c[nH]c3ncnc(N4CCOCC4)c23)c1 [Compound 6] = 0.88

A: COc1ccc(NC(=O)C2(C(=O)Nc3cccc(-c4c[nH]c5ncnc(N6CCOCC6)c45)c3)CC2)cc1 [Compound 16]
B: CC(C)(C)c1cc(NC(=O)Nc2cccc(-c3c[nH]c4ncnc(N5CCOCC5)c34)c2)n(-c2ccc3ncccc3c2)n1 [Compound 28]
Smaller dTm value, A vs B ? Write down the label attached to your selection.
A

----------
Molecular target: ~100 representative kinases (Homo sapiens)
Construct: Recombinant protein kinase domains with a concentration of 2 μM
Assay: DSF 100 kinase selectivity screen;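 further: compound tested at 20 µM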
Assay type: binding
Conditions: Protein EPHA7; average of three replicates
property-measured: dTm (K)

Recorded dTm, per entry:
O=C(Nc1cccc(-c2c[nH]c3ncnc(N4CCOCC4)c23)c1)c1cccn(-c2ccc(F)cc2)c1=O = -1.83
O=C(Nc1cccc(-c2c[nH]c3ncnc(N4CCOCC4)c23)c1)C1(C(=O)Nc2ccc(F)c(Br)c2)CC1 = 2.85
CNC(=O)c1cc(Oc2ccc(NC(=O)Nc3cc(C(C)(C)C)nn3-c3ccc4ncccc4c3)c(F)c2)ccn1 [Rebastinib, reference compound] = 3.35

A: O=C(Nc1cccc(-c2c[nH]c3ncnc(N4CCOCC4)c23)c1)C1(C(=O)Nc2cc(Br)c(F)cc2F)CC1
B: Cc1cc(NC(=O)C2(C(=O)Nc3cccc(-c4c[nH]c5ncnc(N6CCOCC6)c45)c3)CC2)ccc1F
C: CCNc1nc(Nc2cc(F)c(C(=O)N3CCOCC3)cc2OC)ncc1C(F)(F)F
D: COc1cc(NC(=O)C2(C(=O)Nc3cccc(-c4c[nH]c5ncnc(N6CCOCC6)c45)c3)CC2)ccc1F
Ascending by dTm, please. Please respond with the labels ordered as the question requires.
D, B, C, A
(D: -1.98 K, B: -0.92 K, C: -0.20 K, A: 2.86 K)

Measured values drawn from paper PMC12136037 for this set.
